biological target: prostate specific membrane antigen (PSMA) (UniProt Q04609 1-750, limits assumed); assay: cell-based or functional assay
Sequence (Q04609 whole entry): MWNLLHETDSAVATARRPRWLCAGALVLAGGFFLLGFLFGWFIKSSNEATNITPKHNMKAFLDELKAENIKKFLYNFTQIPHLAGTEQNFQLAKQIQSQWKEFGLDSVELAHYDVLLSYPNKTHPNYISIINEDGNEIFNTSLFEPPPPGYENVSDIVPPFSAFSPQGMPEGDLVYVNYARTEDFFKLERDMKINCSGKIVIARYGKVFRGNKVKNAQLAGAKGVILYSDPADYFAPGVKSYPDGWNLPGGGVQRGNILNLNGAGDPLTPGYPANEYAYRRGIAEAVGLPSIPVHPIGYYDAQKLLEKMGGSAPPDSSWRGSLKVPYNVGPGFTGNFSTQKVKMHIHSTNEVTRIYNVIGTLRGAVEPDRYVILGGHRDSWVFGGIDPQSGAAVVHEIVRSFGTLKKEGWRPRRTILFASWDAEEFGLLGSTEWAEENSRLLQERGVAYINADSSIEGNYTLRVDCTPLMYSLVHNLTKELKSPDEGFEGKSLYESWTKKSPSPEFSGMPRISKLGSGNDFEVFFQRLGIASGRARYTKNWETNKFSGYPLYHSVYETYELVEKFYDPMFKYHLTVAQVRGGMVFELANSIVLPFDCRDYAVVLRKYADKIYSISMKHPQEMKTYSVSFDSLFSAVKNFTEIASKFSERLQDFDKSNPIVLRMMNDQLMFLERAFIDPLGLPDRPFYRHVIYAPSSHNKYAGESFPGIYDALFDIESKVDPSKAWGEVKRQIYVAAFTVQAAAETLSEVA
Task for the reader: assign each of the following binders its reported Cell Killing (%), C4-2 cell line.
Express the reported value numerically, then name its unit.

IN: Report Cell Killing (%), C4-2 cell line for Humanized Anti-PSMA Antibody Variant 2 ADC, MMAF payload, Non-Cleavable (PEG3) linker (antibody, human IgG1, kappa, V domains shown, para-acetyl phenylalanine (pAF) at position A114 (Kabat numbering; first residue of the heavy chain constant region), conjugated to non-cleavable (PEG3) MMAF drug-linker) VH: QVQLVQSGAEVKKPGASVKVSCKASGYTFTEYTIHWVRQAPGQRLEWMGNINPNNGGTTYNQKFEDRVTITRDTSASTAYMELSSLRSEDTAVYYCAAGWNFDYWGQGTTLTVSS VL: DIQLTQSPSFLSASVGDRVTITCKASQDVGTAVDWYQQKPGKAPKLLIYWASTRHTGVPSRFSGSGSGTEFTLTISSLQSEDFATYYCQQYNSYPLTFGGGTKVEIKR please.
OUT: 81%

IN: Report Cell Killing (%), C4-2 cell line for Chimeric Anti-PSMA Antibody ADC, MMAF payload, Short Cleavable (Valine-Citruline-Acetyl) linker (antibody, human IgG1, kappa, V domains shown, para-acetyl phenylalanine (pAF) at position A114 (Kabat numbering; first residue of the heavy chain constant region), conjugated to short cleavable (Valine-Citruline-Acetyl) MMAF drug-linker) VH: EVQLQQSGPELVKPGTSVRISCKTSGYTFTEYTIHWVKQSHGKSLEWIGNINPNNGGTTYNQKFEDKATLTVDKSSSTAYMELRSLTSEDSAVYYCAAGWNFDYWGQGTTLTVSS VL: DIVMTQSHKFMSTSVGDRVSIICKASQDVGTAVDWYQQKPGQSPKLLIYWASTRHTGVPDRFTGSGSGTDFTLTITNVQSEDLADYFCQQYNSYPLTFGAGTKVEIKR please.
OUT: 94.5%

IN: Report Cell Killing (%), C4-2 cell line for Chimeric Anti-PSMA Antibody ADC, MMAE payload, Short Cleavable (Valine-Citruline-Acetyl) linker (antibody, human IgG1, kappa, V domains shown, para-acetyl phenylalanine (pAF) at position A114 (Kabat numbering; first residue of the heavy chain constant region), conjugated to short cleavable (Valine-Citruline-Acetyl) MMAE drug-linker) VH: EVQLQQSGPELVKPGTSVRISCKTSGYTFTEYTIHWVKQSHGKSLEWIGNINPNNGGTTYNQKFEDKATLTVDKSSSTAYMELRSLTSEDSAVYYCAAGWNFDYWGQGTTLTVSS VL: DIVMTQSHKFMSTSVGDRVSIICKASQDVGTAVDWYQQKPGQSPKLLIYWASTRHTGVPDRFTGSGSGTDFTLTITNVQSEDLADYFCQQYNSYPLTFGAGTKVEIKR please.
OUT: 82.5%
